tested on: Staphylococcus aureus; experiment: Antibacterial activity against methicillin-resistant Staphylococcus aureus ATCC 43300 measured after 18 hrs by broth microdilution method; assay type: functional; conditions: ATCC 43300, 18 h
Recorded Metric: MIC (µg/mL)
Answers are plain numbers, in µg/mL.

Solved cases (4 shown):
INSERT INTO results (compound, tested_target, recorded_metric, readout_value) VALUES
  ('CC(=O)NC[C@H]1CN(c2ccc(N3CCOCC3)c(F)c2)C(=O)O1', 'Staphylococcus aureus', 'MIC', 1),
  ('CC(=O)NC[C@H]1CN(c2ccc(N3CCO[C@@]4(CCCOC4)C3)c(F)c2)C(=O)O1', 'Staphylococcus aureus', 'MIC', 5),
  ('CC(=O)NC[C@H]1CN(c2ccc(N3CCOC(C)(C)C3)c(F)c2)C(=O)O1', 'Staphylococcus aureus', 'MIC', 8),
  ('C=CCC1(C)CN(c2ccc(N3C[C@H](CNC(C)=O)OC3=O)cc2F)CCO1 (stereo partly specified)', 'Staphylococcus aureus', 'MIC', 16);

What does the data say about its MIC? Entry: CCCC1(C)CN(c2ccc(N3C[C@H](CNC(C)=O)OC3=O)cc2F)CCO1 (stereo partly specified)
16

====

Assignment: determine reported pEC50 for the given compounds.
test system: HepG2; test: Cytotoxicity against human HepG2 cells assessed as reduction in cell viability by CellTiter-Glo assay; format: cell-based
pEC50: −log10 of the molar value.

Here are 2 compounds together with their reported answers.
INSERT INTO measurements (smiles_repr, recorded_metric, readout_value) VALUES
  ('CC(=O)NC[C@H]1CN(c2ccc(N3CCO[C@]4(CCCOC4)C3)c(F)c2)C(=O)O1', 'pEC50', '< 4.52'),
  ('CC(=O)NC[C@H]1CN(c2ccc(N3CCOCC3)c(F)c2)C(=O)O1', 'pEC50', '< 4.52');

Continue with the compound presented below.
For the compound shown here, CC(=O)NC[C@H]1CN(c2ccc(N3CCO[C@@]4(CCCOC4)C3)c(F)c2)C(=O)O1 , give the reported pEC50.
< 4.52

Value source: ChEMBL document CHEMBL4346763
